TARGET_DESC: IL16_4, Q14005
Sequence (Q14005 1229-1329): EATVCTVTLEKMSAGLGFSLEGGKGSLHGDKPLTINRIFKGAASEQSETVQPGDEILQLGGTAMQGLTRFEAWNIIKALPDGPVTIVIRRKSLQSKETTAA
PROCEDURE_SUMMARY: holdup assay
Set-up: key: below the threshold = too weak to quantify, mostly under pKd 3.1 to 4
EXPERIMENTAL_CONDITIONS: plain residues with an end cap or a label only (N-terminal biotin on a linker: ado-ado)
RECORDED_METRIC: pKd

>>> print(df.to_string())
                         binder          assay_value
0    NISYRRESAI [KCNJ4, P48050]  below the threshold
1   EKCGKEFSEF [PRKACA, P17612]  below the threshold
2  PYSESDDDWC [CACNA1A, O00555]  below the threshold
3    ELSATVTTDC [TRIP6, Q15654]  below the threshold
4   TGLWKHETTV [ADGRA3, Q8IWK6]  below the threshold

Can you give me pKd for all of these, one by one?
1. QSGLYESEEL [MYOT, Q9UBF9]
2. NVYGIESVKI [GRIA2, P42262]
3. PYPTADHMLA [JUP, P14923]

Result:
below the threshold
below the threshold
below the threshold
